Molecular target: human EGFR (native sequence) (Homo sapiens)
Sequence (P00533 25-1210): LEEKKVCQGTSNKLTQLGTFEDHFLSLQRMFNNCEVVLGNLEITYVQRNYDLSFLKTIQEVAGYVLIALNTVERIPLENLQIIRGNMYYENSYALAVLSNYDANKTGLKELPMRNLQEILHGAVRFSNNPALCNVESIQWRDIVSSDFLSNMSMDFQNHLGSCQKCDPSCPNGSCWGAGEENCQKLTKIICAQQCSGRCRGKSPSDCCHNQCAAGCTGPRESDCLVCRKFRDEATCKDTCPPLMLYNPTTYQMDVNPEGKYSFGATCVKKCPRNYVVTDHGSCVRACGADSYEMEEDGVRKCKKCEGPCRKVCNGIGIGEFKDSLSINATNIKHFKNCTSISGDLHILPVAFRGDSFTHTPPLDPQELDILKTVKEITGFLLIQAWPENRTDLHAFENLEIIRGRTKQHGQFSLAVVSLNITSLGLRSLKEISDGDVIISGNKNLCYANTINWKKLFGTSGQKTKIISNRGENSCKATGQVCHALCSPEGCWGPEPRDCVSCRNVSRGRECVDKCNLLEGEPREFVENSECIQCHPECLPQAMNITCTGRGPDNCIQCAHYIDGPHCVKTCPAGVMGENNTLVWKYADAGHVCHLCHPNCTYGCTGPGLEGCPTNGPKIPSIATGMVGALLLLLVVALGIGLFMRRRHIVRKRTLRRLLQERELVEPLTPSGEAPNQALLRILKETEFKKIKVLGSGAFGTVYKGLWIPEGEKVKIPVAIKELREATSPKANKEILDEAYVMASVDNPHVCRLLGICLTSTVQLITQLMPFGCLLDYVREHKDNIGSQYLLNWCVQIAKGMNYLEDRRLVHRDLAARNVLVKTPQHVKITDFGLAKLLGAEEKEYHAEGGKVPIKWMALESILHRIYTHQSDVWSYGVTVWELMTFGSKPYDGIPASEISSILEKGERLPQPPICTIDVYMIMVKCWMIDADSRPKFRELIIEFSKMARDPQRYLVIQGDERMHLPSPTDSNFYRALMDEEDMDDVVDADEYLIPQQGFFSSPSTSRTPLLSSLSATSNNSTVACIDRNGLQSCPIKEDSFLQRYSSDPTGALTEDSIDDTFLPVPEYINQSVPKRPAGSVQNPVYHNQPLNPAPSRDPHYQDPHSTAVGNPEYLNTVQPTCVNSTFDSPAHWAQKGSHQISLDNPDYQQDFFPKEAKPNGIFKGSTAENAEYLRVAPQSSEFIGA
Test: Kinase inhibitory activity against human EGFR (native sequence)
Assay type: biochemical
Conditions: 10 pt curves, 3 μM top concentration, 10 μM ATP; read-out: IC50 for kinase inhibition, EGFR
pIC50: −log10 of the molar value.
// pIC50 lookup, one value per entry

Known pIC50 results, listed for orientation:
[[record]]
molecule = "C=CC(=O)Nc1ccc(OCCN(C)C)c(Nc2ncc(Cl)c(Nc3ccccc3P(C)(C)=O)n2)c1"
measured_property = "pIC50"
test_value = "≤ 6.60"

[[record]]
molecule = "CNC(=O)/C=C\\C(=O)Nc1ccc(OC)c(Nc2ncc(Cl)c(Nc3ccccc3P(C)(C)=O)n2)c1"
measured_property = "pIC50"
test_value = "≤ 6.60"

[[record]]
molecule = "C=CC(=O)Nc1cc(Nc2ncc(Cl)c(Nc3ccccc3P(C)(C)=O)n2)c(OC)cc1C#CCN(C(C)C)C(C)C"
measured_property = "pIC50"
test_value = "> 7.30"

[[record]]
molecule = "C=CC(=O)Nc1ccc(OC2COC2)c(Nc2ncc(Cl)c(Nc3ccccc3P(C)(C)=O)n2)c1"
measured_property = "pIC50"
test_value = "≤ 6.60"

[[record]]
molecule = "C=CC(=O)Nc1ccc(OC)c(Nc2ncc(Cl)c(Nc3ccc(OCCCN(C)C)cc3P(C)(C)=O)n2)c1"
measured_property = "pIC50"
test_value = "> 7.30"


Exercise: // query pIC50 value for entry C=CC(=O)Nc1cc(Nc2ncc(Cl)c(Nc3ccccc3P(C)(C)=O)n2)c(OC)cc1OC1CCCN(CCOC)C1 (stereo not shown)
Solution: > 7.30

Exercise: COCCC#CC(=O)Nc1cc(Nc2ncc(Cl)c(Nc3ccccc3P(C)(C)=O)n2)c(OC)cc1N1CCOCC1 ?
Solution: > 7.30
